These measurements were taken from patent US4610981A.

- system.name: thromboxane synthetase (Rattus norvegicus, UniProt P49430)
- Construct: The platelets were isolated by centrifuging the PRP for 10 minutes; endogenous in cells; host or cells: washed platelets from arterial blood of Okamoto-Aoki spontaneously hypertensive rats (animals from Taconic Farms)
- Sequence (P49430 1-533): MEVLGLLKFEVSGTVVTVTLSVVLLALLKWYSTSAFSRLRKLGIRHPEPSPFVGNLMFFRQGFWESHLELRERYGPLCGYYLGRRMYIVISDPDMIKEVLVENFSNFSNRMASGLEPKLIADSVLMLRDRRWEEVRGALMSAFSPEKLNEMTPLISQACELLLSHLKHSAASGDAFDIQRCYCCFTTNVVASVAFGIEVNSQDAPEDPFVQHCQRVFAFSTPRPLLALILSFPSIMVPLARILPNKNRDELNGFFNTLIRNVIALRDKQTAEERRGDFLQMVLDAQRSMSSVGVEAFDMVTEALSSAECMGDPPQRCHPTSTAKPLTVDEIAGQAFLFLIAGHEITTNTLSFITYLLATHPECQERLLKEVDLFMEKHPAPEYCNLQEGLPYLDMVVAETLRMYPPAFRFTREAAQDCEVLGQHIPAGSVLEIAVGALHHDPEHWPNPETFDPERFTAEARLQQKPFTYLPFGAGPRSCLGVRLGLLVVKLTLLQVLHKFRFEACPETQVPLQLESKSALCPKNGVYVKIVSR
- measurement.protocol: Inhibition of thromboxane (TXA2) formation in SHR platelets, TXB2 measured by radioimmunoassay
- Type: cell-based, Okamoto-Aoki spontaneously hypertensive rats (SHR)
- assay.context: dose 10^-4 M; SHR washed platelets, 10 minutes at 37° C.; read-out: % Inhibition (of TXB2 formation)
- Procedure: The inhibition of thromboxane (TXA2) formation was studied by determining the concentration of thromboxane B2 (TXB2), the stable hydrolysis product of TXA2. […] The blood was diluted with 3 ml cold saline and centrifuged at room temperature for 15 minutes at 460×g. The platelet rich plasma (PRP) was separated. The platelets were isolated by centrifuging the PRP for 10 minutes at 1060×g and were washed in 4 ml cold oxygenated Krebs phosphate buffer, pH 7.4. […]
Structures can show the parent of a compound that is named as a salt.
Some compounds, each annotated with its measured inhibition at 100 µM.

compound	inhibition at 100 µM / %
O=S(=O)(NCCc1cccnc1)c1ccc(Cl)cc1	90
O=S(=O)(NCCCn1cncn1)c1ccccc1	67
O=S(=O)(NCCCCn1ccnc1)c1ccc(Br)cc1	91
COc1ccc(S(=O)(=O)NCCCn2ccnc2)cc1	100
O=S(=O)(NCCCCCCCCn1ccnc1)c1ccc(Cl)cc1	93
O=S(=O)(NCCCCn1ccnc1)c1ccc(Cl)cc1	94
CC(=O)Nc1ccc(S(=O)(=O)NCCCCn2ccnc2)cc1	100
COc1ccc(S(=O)(=O)NCCCCn2ccnc2)cc1	97
O=S(=O)(NCCCCn1ccnc1)c1ccccc1	93
O=S(=O)(NCCCn1ccnc1)c1ccc(Cl)cc1	99
CC(=O)Nc1ccc(S(=O)(=O)NCCCn2ccnc2)cc1	73
O=S(=O)(NCCCCCn1ccnc1)c1ccc(Cl)cc1 [hydrochloride]	97
